System: U-937
test: Cytotoxicity against human U937 cells after 48 hrs by MTT assay
Format: functional, cell-based
reportedConditions: Homo sapiens, U-937, 48 h
readoutName: IC50

These recorded examples may help you get a feel for the data.
querysmiles=CCOc1ccc2nc(NC(=S)Nc3ccccc3)sc2c1 recordedresult="37.7 µM"
querysmiles=c1ccc2sc(Nc3nc4ccccc4s3)nc2c1 recordedresult="40 µM"
querysmiles=Fc1ccc(NC(=S)Nc2nc3ccc(F)cc3s2)cc1 recordedresult="16.2 µM"
querysmiles=Fc1ccc2nc(Nc3nc4c(Cl)cccc4s3)sc2c1 recordedresult="> 50 µM"
querysmiles=Fc1ccc(NC(=S)Nc2nc3c(Cl)cccc3s2)cc1 recordedresult="> 50 µM"

Fc1ccc2nc(Nc3nc4ccc(F)cc4s3)sc2c1 has a reported IC50 of 27.4 µM
